Measured values drawn from patent US20170101472A1 for this set.

Biological target: T1, recombinant human LAG3 expressed with a C-terminal myc-myc-hexahistidine tag (human, UniProt P18627 29-450)
T1 construct: also called hLAG3-mmh; hLAG3.mmh
T1 sequence (P18627 other isoform, or with tags, fused parts or gaps limits assumed): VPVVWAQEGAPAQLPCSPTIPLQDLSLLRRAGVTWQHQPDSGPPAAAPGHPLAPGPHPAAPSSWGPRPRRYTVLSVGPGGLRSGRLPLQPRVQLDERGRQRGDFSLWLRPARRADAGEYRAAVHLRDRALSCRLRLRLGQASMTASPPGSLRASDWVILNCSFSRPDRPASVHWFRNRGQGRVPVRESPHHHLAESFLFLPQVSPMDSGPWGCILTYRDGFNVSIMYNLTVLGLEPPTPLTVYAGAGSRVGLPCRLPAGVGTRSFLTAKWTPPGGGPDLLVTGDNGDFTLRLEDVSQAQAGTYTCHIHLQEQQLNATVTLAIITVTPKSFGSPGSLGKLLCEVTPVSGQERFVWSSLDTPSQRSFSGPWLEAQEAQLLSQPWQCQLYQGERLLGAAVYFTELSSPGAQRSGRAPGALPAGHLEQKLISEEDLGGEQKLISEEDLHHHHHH
Assay: SPR, mAb captured, 37 C

- binder: "H4H17823P (antibody, human IgG4, V domains shown, H4H = human IgG4 Fc with S108P hinge mutation) VH: EVQLLESGGGLVQPGGSLRLSCAASGFTFRSYAMSWVRQAPGKGLEWVSVISGGGGRTYYTDSVKGRFTISRDNSKSMLYLQMNSLRAEDTAIYYCAKERVTGIDHYYYGVDVWGQGTTVTVSS VL: DIQMTQSPSSLSASVGDRVTITCRASQSISSYLNWYQQKPGKAPKLLIYATSSLQSGVPSRFSGSASGTDFTLAISSLQPEDFATYYCQQSYTTPLTFGGGTKVEIK"
  koff [s⁻¹]: 0.000924
- binder: "H4H17819P (antibody, human IgG4, V domains shown, H4H = human IgG4 Fc with S108P hinge mutation) VH: EVQLVESGGGLVQPGGSLRLSCVASGFTFSLYAMTWVRQVPGKGLEWVSTISGSGGGTYYTDSVKGRFTISRDNSKNTLYLQMNSLRADDTAVFYCTKESTTGTYSYFYGMDVWGQGTTVTVSS VL: DIQMTQSPSSLSASVGDRVTITCRASQTISSYLNWYQQKPGKAPKLLIYAASSLQSGVPSRFSGSGSGTDFTLTLSGLQPEDFATYYCQQSYSTPLTFGGGTKVEIK"
  koff [s⁻¹]: 0.000876
- binder: "H4H14813N (antibody, human IgG4, V domains shown, H4H = human IgG4 Fc with S108P hinge mutation) VH: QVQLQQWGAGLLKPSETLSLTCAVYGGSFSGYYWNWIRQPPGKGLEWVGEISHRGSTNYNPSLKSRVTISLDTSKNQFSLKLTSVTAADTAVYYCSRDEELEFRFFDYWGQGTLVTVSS VL: EIVLTQSPATLSLSPGERATLSCRASQSVSSYLAWYQQKPGQAPRLLVYGASNRATGIPARFSGSGSGTDFTLTISSLEPEDFAFYYCQQRSNWPLTFGGGTKVEIK"
  koff [s⁻¹]: 0.000152
- binder: "H4sH14813N (antibody, human IgG4 S228P, kappa, V domains shown, H4sH = modified human IgG4 Fc) VH: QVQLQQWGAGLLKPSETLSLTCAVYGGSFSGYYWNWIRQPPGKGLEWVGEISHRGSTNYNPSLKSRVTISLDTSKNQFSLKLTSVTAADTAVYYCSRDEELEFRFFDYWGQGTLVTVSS VL: EIVLTQSPATLSLSPGERATLSCRASQSVSSYLAWYQQKPGQAPRLLVYGASNRATGIPARFSGSGSGTDFTLTISSLEPEDFAFYYCQQRSNWPLTFGGGTKVEIKR"
  koff [s⁻¹]: 0.000154
- binder: "H4H15483P (antibody, human IgG4, V domains shown, H4H = human IgG4 Fc with S108P hinge mutation) VH: QVQLQQWGAGLLPPSETLSLICAVYGGSFSGYYWSWIRQPPGKGLEWIGEINHRGSTNYNPSLKSRATISVDTSKNQFSLKLSSVTAADTAVYYCSRGEDYYDSSGYSYYFDYWGQGTLVTVSS VL: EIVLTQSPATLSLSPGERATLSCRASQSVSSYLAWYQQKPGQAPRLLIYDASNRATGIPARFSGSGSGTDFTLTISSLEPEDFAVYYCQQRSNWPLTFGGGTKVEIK"
  koff [s⁻¹]: 0.00111
